TARGET: NSD3S (Homo sapiens, UniProt Q9BZ95)
Sequence (Q9BZ95 1-645 isoform Q9BZ95-3): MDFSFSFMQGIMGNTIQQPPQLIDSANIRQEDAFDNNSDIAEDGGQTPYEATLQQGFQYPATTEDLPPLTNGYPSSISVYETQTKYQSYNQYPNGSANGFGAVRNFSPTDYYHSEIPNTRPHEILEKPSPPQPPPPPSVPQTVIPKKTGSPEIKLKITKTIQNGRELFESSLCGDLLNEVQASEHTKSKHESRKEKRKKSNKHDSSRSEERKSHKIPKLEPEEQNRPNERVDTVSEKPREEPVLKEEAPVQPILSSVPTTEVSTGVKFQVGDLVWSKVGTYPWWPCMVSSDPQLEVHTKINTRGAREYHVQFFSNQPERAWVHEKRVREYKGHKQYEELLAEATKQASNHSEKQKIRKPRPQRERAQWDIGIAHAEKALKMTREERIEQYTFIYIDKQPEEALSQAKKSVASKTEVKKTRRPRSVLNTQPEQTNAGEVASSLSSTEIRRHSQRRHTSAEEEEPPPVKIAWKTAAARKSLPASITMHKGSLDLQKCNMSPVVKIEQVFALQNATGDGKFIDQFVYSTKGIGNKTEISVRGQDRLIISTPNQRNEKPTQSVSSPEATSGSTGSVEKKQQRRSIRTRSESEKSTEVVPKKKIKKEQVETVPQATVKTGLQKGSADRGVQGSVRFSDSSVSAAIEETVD
PROTOCOL_TEXT: Immunoblotting for NSD3S in 293FT cells
Assay type: cell-based
CONDITION_CONTEXT: 293FT cells, 48-hour treatment, indicated concentrations
RECORDED_ENDPOINT: NSD3 degradation (immunoblot)

IN: Write down NSD3 degradation (immunoblot) measured for item Cc1cc(CNCCCC(=O)NCCCCCNc2cccc3c2C(=O)N(C2CCC(=O)NC2=O)C3=O)cc(C)c1-c1ncn(C)c1-c1ccnc2cc(F)ccc12 (stereo not shown)
OUT: failed to degrade NSD3

IN: Write down NSD3 degradation (immunoblot) measured for item Cc1cc(CNCCCC(=O)NCCOCCOCCNc2cccc3c2C(=O)N(C2CCC(=O)NC2=O)C3=O)cc(C)c1-c1ncn(C)c1-c1ccnc2cc(F)ccc12 (stereo not shown)
OUT: failed to degrade NSD3
